assay_summary: activity coefficient (dimensionless); of the first substance listed, at infinite dilution; xn = mol fraction of the nth substance listed
measurement_setup: 322.55 K; 101 kPa; Liquid; Chromatography; x1 = 0
# label = satisfied if activity coefficient < 2 else not satisfied

C=O [methanal] + CCCCn1cc[n+](C)c1.O=S(=O)([N-]S(=O)(=O)C(F)(F)C(F)(F)F)C(F)(F)C(F)(F)F
satisfied
CCCCO [butan-1-ol] + CCCCn1cc[n+](C)c1.O=S(=O)([N-]S(=O)(=O)C(F)(F)C(F)(F)F)C(F)(F)C(F)(F)F
not satisfied
CCC=O [propanal] + CCCCn1cc[n+](C)c1.O=S(=O)([N-]S(=O)(=O)C(F)(F)C(F)(F)F)C(F)(F)C(F)(F)F
satisfied
CC1CCCC1 [methylcyclopentane] + CCCCn1cc[n+](C)c1.O=S(=O)([N-]S(=O)(=O)C(F)(F)C(F)(F)F)C(F)(F)C(F)(F)F
not satisfied
ClC(Cl)Cl [trichloromethane] + CCCCn1cc[n+](C)c1.O=S(=O)([N-]S(=O)(=O)C(F)(F)C(F)(F)F)C(F)(F)C(F)(F)F
satisfied
C1COCCO1 [1,4-dioxane] + CCCCn1cc[n+](C)c1.O=S(=O)([N-]S(=O)(=O)C(F)(F)C(F)(F)F)C(F)(F)C(F)(F)F
satisfied
CCCCCCCCCCCC [dodecane] + CCCCn1cc[n+](C)c1.O=S(=O)([N-]S(=O)(=O)C(F)(F)C(F)(F)F)C(F)(F)C(F)(F)F
not satisfied

IN: Confirm or reject: activity coefficient of CCCCCCCCCCCCCC [tetradecane] + CCCCn1cc[n+](C)c1.O=S(=O)([N-]S(=O)(=O)C(F)(F)C(F)(F)F)C(F)(F)C(F)(F)F lies strictly below 2
OUT: not satisfied

---

Measured activity coefficient, listed per entry.
assay_summary: activity coefficient (dimensionless); of the first substance listed, at infinite dilution; xn = mol fraction of the nth substance listed
measurement_setup: 362.65 K; 101 kPa; Liquid; Chromatography; x1 = 0
Give the value as a plain number.

CC(C)OC(C)C [diisopropyl ether] + CCCCn1cc[n+](C)c1.O=S(=O)([N-]S(=O)(=O)C(F)(F)C(F)(F)F)C(F)(F)C(F)(F)F
3.43
C[N+](=O)[O-] [nitromethane] + CCCCn1cc[n+](C)c1.O=S(=O)([N-]S(=O)(=O)C(F)(F)C(F)(F)F)C(F)(F)C(F)(F)F
0.699

IN: Quick one: activity coefficient for CCC[N+](=O)[O-] [1-nitropropane] + CCCCn1cc[n+](C)c1.O=S(=O)([N-]S(=O)(=O)C(F)(F)C(F)(F)F)C(F)(F)C(F)(F)F ?
OUT: 0.756

---

assay_summary: activity coefficient (dimensionless); of the first substance listed, at infinite dilution; xn = mol fraction of the nth substance listed
measurement_setup: 354.65 K; 101 kPa; Liquid; Chromatography; x1 = 0
measured_quantity: activity coefficient
Reply: number alone, nothing else.

CCCC(C)=O [pentan-2-one] + CCCCCC[n+]1ccn(C)c1.FC(F)(F)C(F)(F)[P-](F)(F)(F)(C(F)(F)C(F)(F)F)C(F)(F)C(F)(F)F
0.311
CCOCC [diethyl ether] + CCCCCC[n+]1ccn(C)c1.FC(F)(F)C(F)(F)[P-](F)(F)(F)(C(F)(F)C(F)(F)F)C(F)(F)C(F)(F)F
0.897

In the following, a different compound is considered.
IN: Using the record for CCCCCCCCC [nonane] + CCCCCC[n+]1ccn(C)c1.FC(F)(F)C(F)(F)[P-](F)(F)(F)(C(F)(F)C(F)(F)F)C(F)(F)C(F)(F)F , report its activity coefficient.
OUT: 12.4

---

assay_summary: activity coefficient (dimensionless); of the first substance listed, at infinite dilution; xn = mol fraction of the nth substance listed
measurement_setup: 333.15 K; 101 kPa; Liquid; Chromatography; x1 = 0
Some compounds, each annotated with its measured activity coefficient.

Answered cases to consult:
CCCO [propan-1-ol] + CCCCCCCCCCn1cc[n+](CCCCCCCCCC)c1C.O=S(=O)([N-]S(=O)(=O)C(F)(F)F)C(F)(F)F
1.16
CO [methanol] + CCCCCCCCCCn1cc[n+](CCCCCCCCCC)c1C.O=S(=O)([N-]S(=O)(=O)C(F)(F)F)C(F)(F)F
0.857
CCCCCCCC [octane] + CCCCCCCCCCn1cc[n+](CCCCCCCCCC)c1C.O=S(=O)([N-]S(=O)(=O)C(F)(F)F)C(F)(F)F
2.48

Moving on to the next compound.
IN: Name the recorded activity coefficient for CCCCCC [hexane] + CCCCCCCCCCn1cc[n+](CCCCCCCCCC)c1C.O=S(=O)([N-]S(=O)(=O)C(F)(F)F)C(F)(F)F .
OUT: 1.79

---

Measured activity coefficient by item
assay_summary: activity coefficient (dimensionless); of the first substance listed, at infinite dilution; xn = mol fraction of the nth substance listed
measurement_setup: 323.1 K; 101 kPa; Liquid; Chromatography; x1 = 0
Hey, just send me the number, nothing else.

Worked set:
c1ccsc1 [thiophene] + CCCCCCCCCCn1cc[n+](CCCCCCCCCC)c1C.O=S(=O)([N-]S(=O)(=O)C(F)(F)F)C(F)(F)F
0.422
C=O [methanal] + CCCCCCCCCCn1cc[n+](CCCCCCCCCC)c1C.O=S(=O)([N-]S(=O)(=O)C(F)(F)F)C(F)(F)F
0.074

IN: Look up activity coefficient: CC1CCCCC1 [methylcyclohexane] + CCCCCCCCCCn1cc[n+](CCCCCCCCCC)c1C.O=S(=O)([N-]S(=O)(=O)C(F)(F)F)C(F)(F)F
OUT: 1.52

---

assay_summary: activity coefficient (dimensionless); of the first substance listed, at infinite dilution; xn = mol fraction of the nth substance listed
measurement_setup: 323.1 K; 101 kPa; Liquid; Chromatography; x1 = 0
measured_quantity: activity coefficient
Reply: number alone, nothing else.

Reference set (2 entries):
Cc1ccccc1C [1,2-dimethylbenzene] + CCCCCCCCCCn1cc[n+](CCCCCCCCCC)c1C.O=S(=O)([N-]S(=O)(=O)C(F)(F)F)C(F)(F)F
0.626
CCC(C)CC [3-methylpentane] + CCCCCCCCCCn1cc[n+](CCCCCCCCCC)c1C.O=S(=O)([N-]S(=O)(=O)C(F)(F)F)C(F)(F)F
1.71

IN: Report activity coefficient for CCC(=O)CC [pentan-3-one] + CCCCCCCCCCn1cc[n+](CCCCCCCCCC)c1C.O=S(=O)([N-]S(=O)(=O)C(F)(F)F)C(F)(F)F please.
OUT: 0.37

---

assay_summary: activity coefficient (dimensionless); of the first substance listed, at infinite dilution; xn = mol fraction of the nth substance listed
measurement_setup: 312.8 K; 101 kPa; Liquid; Chromatography; x1 = 0
Reported activity coefficient values for the following compounds.

CCCCCCCCC [nonane] + CCCCCC[n+]1ccn(C)c1.FC(F)(F)C(F)(F)[P-](F)(F)(F)(C(F)(F)C(F)(F)F)C(F)(F)C(F)(F)F
17.7
ClCCl [dichloromethane] + CCCCCC[n+]1ccn(C)c1.FC(F)(F)C(F)(F)[P-](F)(F)(F)(C(F)(F)C(F)(F)F)C(F)(F)C(F)(F)F
0.66
Cc1ccc(C)cc1 [1,4-dimethylbenzene] + CCCCCC[n+]1ccn(C)c1.FC(F)(F)C(F)(F)[P-](F)(F)(F)(C(F)(F)C(F)(F)F)C(F)(F)C(F)(F)F
0.992
CC(C)OC(C)C [diisopropyl ether] + CCCCCC[n+]1ccn(C)c1.FC(F)(F)C(F)(F)[P-](F)(F)(F)(C(F)(F)C(F)(F)F)C(F)(F)C(F)(F)F
1.59

IN: Quick check: activity coefficient of C=O [methanal] + CCCCCC[n+]1ccn(C)c1.FC(F)(F)C(F)(F)[P-](F)(F)(F)(C(F)(F)C(F)(F)F)C(F)(F)C(F)(F)F ?
OUT: 0.096

IN: Any idea what activity coefficient was measured for CO [methanol] + CCCCCC[n+]1ccn(C)c1.FC(F)(F)C(F)(F)[P-](F)(F)(F)(C(F)(F)C(F)(F)F)C(F)(F)C(F)(F)F ?
OUT: 1.57

IN: I'd like to know its activity coefficient. The compound in question is CC1CCCC1 [methylcyclopentane] + CCCCCC[n+]1ccn(C)c1.FC(F)(F)C(F)(F)[P-](F)(F)(F)(C(F)(F)C(F)(F)F)C(F)(F)C(F)(F)F
OUT: 4.58

IN: Given the entry CCCC(C)=O [pentan-2-one] + CCCCCC[n+]1ccn(C)c1.FC(F)(F)C(F)(F)[P-](F)(F)(F)(C(F)(F)C(F)(F)F)C(F)(F)C(F)(F)F , report its measured activity coefficient.
OUT: 0.271

---

assay_summary: activity coefficient (dimensionless); of the first substance listed, at infinite dilution; xn = mol fraction of the nth substance listed
measurement_setup: 342.75 K; 101 kPa; Liquid; Chromatography; x1 = 0
measured_quantity: activity coefficient
Provide a numeric answer; units are not to be included.

Consider the following illustrative entries.
CCC(C)CC [3-methylpentane] + CCCCn1cc[n+](C)c1.O=S(=O)([N-]S(=O)(=O)C(F)(F)C(F)(F)F)C(F)(F)C(F)(F)F
7.79
C1COCCO1 [1,4-dioxane] + CCCCn1cc[n+](C)c1.O=S(=O)([N-]S(=O)(=O)C(F)(F)C(F)(F)F)C(F)(F)C(F)(F)F
0.607
CC1CCCCC1 [methylcyclohexane] + CCCCn1cc[n+](C)c1.O=S(=O)([N-]S(=O)(=O)C(F)(F)C(F)(F)F)C(F)(F)C(F)(F)F
7.96
CCC(=O)CC [pentan-3-one] + CCCCn1cc[n+](C)c1.O=S(=O)([N-]S(=O)(=O)C(F)(F)C(F)(F)F)C(F)(F)C(F)(F)F
0.656
C[N+](=O)[O-] [nitromethane] + CCCCn1cc[n+](C)c1.O=S(=O)([N-]S(=O)(=O)C(F)(F)C(F)(F)F)C(F)(F)C(F)(F)F
0.682

IN: Param item = CC(C)CC(C)(C)C [2,2,4-trimethylpentane] + CCCCn1cc[n+](C)c1.O=S(=O)([N-]S(=O)(=O)C(F)(F)C(F)(F)F)C(F)(F)C(F)(F)F ; retrieve measured activity coefficient.
OUT: 11.7

IN: Quick check: activity coefficient of CCCCCCCCCC [decane] + CCCCn1cc[n+](C)c1.O=S(=O)([N-]S(=O)(=O)C(F)(F)C(F)(F)F)C(F)(F)C(F)(F)F ?
OUT: 33.3

IN: Form field: reported activity coefficient of C=O [methanal] + CCCCn1cc[n+](C)c1.O=S(=O)([N-]S(=O)(=O)C(F)(F)C(F)(F)F)C(F)(F)C(F)(F)F
OUT: 0.155

IN: For the compound CCO [ethanol] + CCCCn1cc[n+](C)c1.O=S(=O)([N-]S(=O)(=O)C(F)(F)C(F)(F)F)C(F)(F)C(F)(F)F , what activity coefficient is on record?
OUT: 1.37

IN: Look at this compound and give its reported activity coefficient. c1ccccc1 [benzene] + CCCCn1cc[n+](C)c1.O=S(=O)([N-]S(=O)(=O)C(F)(F)C(F)(F)F)C(F)(F)C(F)(F)F
OUT: 1.02

IN: Item Cc1ccccc1 [toluene] + CCCCn1cc[n+](C)c1.O=S(=O)([N-]S(=O)(=O)C(F)(F)C(F)(F)F)C(F)(F)C(F)(F)F has what recorded activity coefficient?
OUT: 1.42

IN: Please give the measured activity coefficient for this compound: CC#N [acetonitrile] + CCCCn1cc[n+](C)c1.O=S(=O)([N-]S(=O)(=O)C(F)(F)C(F)(F)F)C(F)(F)C(F)(F)F
OUT: 0.514

IN: What does the record list as activity coefficient for CCCCCCCC [octane] + CCCCn1cc[n+](C)c1.O=S(=O)([N-]S(=O)(=O)C(F)(F)C(F)(F)F)C(F)(F)C(F)(F)F ?
OUT: 17.3
